Data provenance is patent US20030068675.

# system: ZFP SBS#1219 (synthetic)
# Sequence (chain, as listed by the source): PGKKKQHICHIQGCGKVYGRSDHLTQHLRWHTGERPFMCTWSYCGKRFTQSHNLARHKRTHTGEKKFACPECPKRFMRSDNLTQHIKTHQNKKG
# protocol text: EMSA
# measurement conditions: tags: MBP fusion
quantity: pKd
One number for each entry, as −log10 of the molar value.

# pKd (binder: AAGGAAAGG (dsDNA) DNA 1: AAGGAAAGG DNA 2: CCTTTCCTT ) is 9.17
